# Tested on: HEK-293T
# experimental protocol: Antiproliferative activity against HEK293T cells assessed as reduction in cell viability incubated for 48 hrs by CCK-8 assay
# Assay type: functional, cell-based
# measurement setup: Homo sapiens
pIC50: −log10 of the molar value.
Everything with pIC50 lower than 5 is FALSE; everything else, including exactly 5, is TRUE.

Field: example entries. Status: answers known.
1) CC(C)[C@H](NC(=O)c1cc(OCc2ccccc2)c2c(c1)C(=O)c1cccc(OCc3ccccc3)c1C2=O)C(=O)O
FALSE
2) CC(C)[C@H](NC(=O)c1cc(OCCCc2ccccc2)c2c(c1)C(=O)c1cccc(OCCCc3ccccc3)c1C2=O)C(=O)O
TRUE

Hi, just wondering whether CC(C)c1ccc(COc2cccc3c2C(=O)c2c(OCc4ccc(C(C)C)cc4)cc(C(=O)N[C@H](C(=O)O)C(C)C)cc2C3=O)cc1 shows pIC50 of 5 or higher.
TRUE

Hi, just wondering whether CCCCOc1cccc2c1C(=O)c1c(OCCCC)cc(C(=O)N[C@H](C(=O)O)C(C)C)cc1C2=O shows pIC50 of 5 or higher.
FALSE
